Experiment: growth of efflux-deficient E. coli DRC39 – strain DRC39, OD650, 24 h, E. coli filamentation inducers, primary screen (AID 1178);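 note: growth measured as culture turbidity by optical density at 650 nm; test concentration not given here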
Conditions: E. coli DRC39 acrAB, higher = more signal, called active from +8 up or from −8 down
Each item that follows carries a reported z-score.
Form field (numeric): enter value without unit.

Here are 3 compounds together with their reported answers.
# compound, assay_readout, endpoint_value
rows = [
    ("[N-]=[N+]=NCc1ccccc1[C@H]1OC(c2ccc(OCCCO)cc2)=N[C@@]1(Cc1ccccc1)C(=O)NCC(O)CO (stereo partly specified)", "z-score", -0.329),
    ("C=CCOC(=O)[C@@H]1[C@H]2C(=O)O[C@H](c3ccccc3)[C@H](c3ccccc3)N2[C@H](c2ccc(OCCOC(=O)[C@H]3C[C@H]4C(=O)N[C@@H](Cc5ccccc5)C(=O)N4[C@H]3c3ccc(O)cc3)cc2)[C@@]12C(=O)Nc1ccc(I)cc12", "z-score", -1.52),
    ("CC(C)[Si]1(C(C)C)O[C@@H](c2ccccc2)c2cc(-c3ccc(-c4ccc(Cl)c(Cl)c4)o3)nc(CCc3ccccc3)c21", "z-score", 0.231),
]

Task item: State the recorded z-score for this entry: C/C=C/[C@H](CCn1cc([C@H](O)c2ccccc2)nn1)[Si](C)(C)c1ccc(OC)cc1
Reply: 0.265

Task item: Which z-score is listed for CN(C)CCCCNC(=O)[C@@H]1C[C@@H]2C(=O)N[C@@H](CCCCN)C(=O)N2[C@@H]1c1cccc(OCCO)c1 ?
Reply: -0.383

Task item: Which z-score value is on record for C=CC[C@@]1(C(=O)OC)N=C(c2ccc(OCCCO)cc2)O[C@@H]1c1ccccc1CN=[N+]=[N-] ?
Reply: 0.419

---

Assay: small molecules captured by biotinylated probe aFSTL3 – biochemical, small-molecule microarray, fluorescence 635/667, stem cell growth factor project, primary screen (AID 1064);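 note: measures binding of the biotinylated anti-FSTL3 antibody to printed compounds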
Settings: higher = more signal
Outcome label depends on composite z-score relative to 0.2: at/above gives TRUE, below gives FALSE.

# compound, qualitative_label
data = [
    ("CN(C)CCCC[C@@H]1NC(=O)[C@@H]2C[C@H](C(=O)NCCCCCCN)[C@H](c3ccc(O)cc3)N2C1=O", "TRUE"),
    ("C[C@]1(C(=O)NCC(F)(F)F)c2ccccc2C(=O)N(Cc2cc(F)cc(C(F)(F)F)c2)[C@H]1c1ccc(CO)cc1", "FALSE"),
    ("CN1C(=O)C2C=CC(C(O)C(c3ccccc3)c3ccccc3)N(Nc3ccccc3)C2C1=O (stereo not drawn)", "FALSE"),
]

Task item: Reported composite z-score reaches at least 0.2 for [N-]=[N+]=NCc1ccccc1[C@@H]1OC(c2ccc(OCCCO)cc2)=N[C@]1(Cc1ccccc1N=[N+]=[N-])C(N)=O ?
Reply: TRUE

Task item: Given O=c1cccc(-c2ccc3ccccc3c2)o1 , state whether its composite z-score is at least 0.2.
Reply: TRUE

---

Experiment: viability profiling in MM1S myeloma cells – cell-based, resazurin fluorescence, basal, 24 h, PK04 Diversity Set, profiling panel (AID 1174);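 note: MM1S multiple myeloma cell line; test concentration not given here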
Settings: higher = more signal, called active from +8 up or from −8 down
Listed next: entries and their corresponding z-score.
Lab note: jot the number down without any unit.

// solved cases for z-score follow
# molecule, z-score
records = [
    ("CCN(CC)c1ccc(N2CC=CC34O[C@@H]5/C=C\\CCCOC(=O)C5[C@H]3C(=O)N(CCCO)[C@@H]4C2=O)cc1 (some centres undefined)", 0.481),
    ("O=C1O[C@H](c2ccccc2)[C@H](c2ccccc2)N2[C@H]1[C@@H](C(=O)NC[C@H](O)c1ccccc1)[C@]1(C(=O)Nc3ccc(C#CC4=CCCCC4)cc31)[C@H]2c1ccc(O)cc1", -1.78),
    ("CO[C@H]1O[C@H](CO)[C@@H](OC(=O)Nc2ccccc2-c2ccccc2)[C@H](OC(=O)Nc2ccccc2-c2ccccc2)[C@H]1OC(=O)Nc1ccccc1-c1ccccc1", -1.6),
    ("COC(=O)[C@@]1(Cc2ccc(F)cc2)[C@H]2c3cc(C(=O)N(C)C)n(CCc4c[nH]c5ccc(OC)cc45)c3C[C@H]2CN1C(=O)c1ccccc1", -2),
    ("CCN(CC)c1ccc(N2CC=CC34O[C@@H]5C=CCOC(=O)[C@@H]5[C@H]3C(=O)N(CCCCCO)[C@@H]4C2=O)cc1 (some centres undefined)", 1.08),
    ("Cc1ccc([C@H]2C(C(=O)O)=C[C@@H](C(C)C)N2S(=O)(=O)c2ccc(C)cc2)cc1", -0.645),
    ("CC(C)C(=C=CC[C@H](O)c1ccccc1OCCO)CCO", -0.0976),
    ("COc1cc(NN2C(C(O)c3ccccc3)C=CC3C(=O)N(c4ccccc4)C(=O)C32)cc(OC)c1OC (centres undefined)", -0.417),
]

Task item: Which z-score is reported for this molecule? CC(C)(C)OC(=O)CC[C@@]1(C(=O)N2CCOCC2)N=C(c2ccc(OCCCO)cc2)O[C@@H]1c1ccccc1N=[N+]=[N-]
Reply: -0.894

Task item: Could you tell me which z-score is on file for CCCC[C@@H]1C[C@H]1[C@@H](NC(=O)c1ccccc1)c1ccc(-c2ccccc2)cc1 ?
Reply: -2.24

---

Assay: probe aXIP binding to arrayed compounds – biochemical, NeuroSMM set, 635/667 nm fluorescence, primary screen (AID 1119);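 note: probe is the protein aXip251-270 applied at 1 µg/mL to compound-printed slides; binding of probe to printed compounds measured as 667 nm fluorescence plus signal to noise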
Settings: small-molecule microarray, higher = more signal, called active from +8 up or from −8 down
assay_readout: composite Z-score
Give your answer as a number; write no unit.

# smiles_string, endpoint_value
rows = [
    ("Cc1ccc(S[C@]2(C(=O)NCC(C)C)CC(=O)N(Cc3ccccc3)[C@@H]2c2ccc(CO)cc2)cc1", 0.941),
    ("O=C1c2ccccc2[C@@]2(Cc3ccccc3N(Cc3ccccc3)C2=O)[C@H](c2ccc(CO)cc2)N1Cc1ccccc1C(F)(F)F", -0.372),
]

Task item: Endpoint output: composite Z-score of CN(C)CCCC[C@@H]1NC(=O)[C@@H]2C[C@H](C(=O)NCCCCCCN)[C@H](c3ccc(O)cc3)N2C1=O . Value?
Reply: 0.142

Task item: Fill blank: measured composite Z-score of the molecule COc1ccc([Si](C)(C)[C@@H]2[C@@H](CCO)O[C@]3(C(=O)N(Cc4ccc(N5C(=O)c6cccc7cccc5c67)cc4)c4ccccc43)[C@H]2C)cc1 is ____.
Reply: 0.77

Task item: I am curious: what composite Z-score value has been reported for COCCOC(=O)N1C(=O)[C@@]2(c3cc(C#CC4(O)CCCCCC4)ccc31)[C@H](c1ccc(O)cc1)N1[C@H](c3ccccc3)[C@H](c3ccccc3)OC(=O)[C@H]1[C@@H]2C(=O)N1CCc2cc(OC)c(OC)cc2C1 ?
Reply: 0.131

Task item: Which composite Z-score value belongs to O=C1c2ccccc2[C@](Cc2ccccc2I)(C(=O)O)[C@H](c2ccc(CO)cc2)N1Cc1ccccc1C(F)(F)F ?
Reply: -0.249

---

Experiment: probe aLAP1 signal on lysate-treated microarray – cell lysate, small-molecule microarray, COS7 lysate, primary screen (AID 1124);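 note: lysate comes from COS7 cells expressing LAP1 and is applied at 0.3 µg/mL; score merges spot fluorescence near 667 nm with signal-to-noise over triplicate slides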
Conditions: probe aLAP1, fluorescence, higher = more signal
assay_readout: composite z-score
Lab note: jot the number down without any unit.

Field: example entries. Status: answers known.
# molecule, composite z-score
records = [
    ("CCCCCN1CC=CC23O[C@@H]4C=CCCOC(=O)C4[C@H]2C(=O)N(CCCO)[C@@H]3C1=O (stereo partly drawn)", 0.0581),
    ("C[N+](C)(C)CCCC[C@@H]1NC(=O)[C@@H]2C[C@H](C(=O)NCCCCCCNC(=O)CS)[C@H](c3cccc(OCCO)c3)N2C1=O", 0.264),
    ("COCCOC(=O)N1C(=O)[C@@]2(c3ccccc31)[C@H](C(=O)N1CCCCCCC1)[C@H]1C(=O)O[C@H](c3ccccc3)[C@H](c3ccccc3)N1[C@@H]2c1ccccc1OCCO", 1.19),
    ("CCCCC(=O)N(Cc1ccccc1F)[C@@H]1CC(C(=O)NCCO)=C[C@H](Oc2c(I)cc(CO)cc2OC)[C@H]1O", 0.44),
    ("C=CCC(OC(C)=O)[C@@H]1[C@@H](N(Cc2cc3ccccc3o2)C(=O)c2ccc(-c3ccccc3)cc2)c2cc(OCCCO)ccc2N1C(=O)Cc1ccc2ccccc2c1 (stereo partly drawn)", 0.255),
]

Task item: # query: composite z-score of entry CN1C(=O)C2C(C1=O)C1C=C(c3ccc(CO)cc3)C2C(C2CC2)N1Cc1sc2ccccc2c1Cl (stereo not drawn)
Reply: 0.74

Task item: Requested field: composite z-score. Item: O=C1C2C=CC(C(O)C3CC=CCC3)N(n3cnnc3)C2C(=O)N1Cc1ccccc1 (stereo not drawn)
Reply: 1.34

Task item: Entry C=C(CCCC)C(=O)CC[C@H](OC(=O)c1ccccc1-c1ccccc1C(=O)O)c1ccc(CO)o1 : reported composite z-score = ?
Reply: 0.645

Taken from PubChem BioAssay.
